- measurement-target: T1, CRBN, Q96SW2;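 note: pooled lentiviral library of zinc finger degron-EGFP fusions in mCherry-positive Jurkat cells, FACS-sorted after compound exposure, with degron abundance counted by next-generation sequencing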
- T1 chain: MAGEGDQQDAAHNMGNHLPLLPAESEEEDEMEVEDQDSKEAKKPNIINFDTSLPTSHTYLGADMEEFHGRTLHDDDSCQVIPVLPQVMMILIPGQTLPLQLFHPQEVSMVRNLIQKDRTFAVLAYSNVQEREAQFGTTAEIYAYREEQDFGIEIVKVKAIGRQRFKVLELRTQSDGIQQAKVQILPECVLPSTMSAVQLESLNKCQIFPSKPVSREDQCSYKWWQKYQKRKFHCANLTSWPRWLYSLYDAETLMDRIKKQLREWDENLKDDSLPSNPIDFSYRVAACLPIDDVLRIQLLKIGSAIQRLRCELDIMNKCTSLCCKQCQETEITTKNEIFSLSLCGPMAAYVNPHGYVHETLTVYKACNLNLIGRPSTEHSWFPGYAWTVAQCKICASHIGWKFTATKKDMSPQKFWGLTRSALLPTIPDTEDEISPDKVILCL
- assay-details: log2 fold change of degron read counts, EGFP-low vs EGFP+ sorted cells (limma voom), compound-induced degradation; higher = more compound-induced degradation of the degron-EGFP fusion; degrons are variants of IKZF1/3 zinc finger 2; compound dose not given here
- measurement-setup: Jurkat; 18 h; compound: thalidomide
Over roughly 8,300 sequences, “log2 fold change of degron read counts, EGFP-low vs EGFP+ sorted cells (limma voom), compound-induced degradation” has its median near -1.1; the highest 2% begin near 3.2. Only a selection was taken, and the highest values are over-represented in it overall.
Use Yes when the recorded log2 fold change of degron read counts is no lower than 1; use No when it is lower.

Worked cases, answers included:
sequence_chain="LFCPICGFSCTQKGNLLRHIKL [46L_47F_49P_50I_52G_53F_54S_55C_67L_, Q9UKT9]" qualitative_label=Yes
sequence_chain="FVCEVCGASFTQKGNLLRHIKL [46F_47V_49E_50V_52G_53A_54S_55F_67L_, Q9UKT9]" qualitative_label=Yes
sequence_chain="FACEVCGASFTQKGNLLRHIKL [46F_47A_49E_50V_52G_53A_54S_55F_67L_, Q9UKT9]" qualitative_label=Yes
sequence_chain="FMCEVCGASFTQKGNLLRHIKL [46F_47M_49E_50V_52G_53A_54S_55F_67L_, Q9UKT9]" qualitative_label=Yes
sequence_chain="FQCEVCGADFTQKGNLLRHIKL [46F_47Q_49E_50V_52G_53A_54D_55F_67L_, Q9UKT9]" qualitative_label=Yes
sequence_chain="FSCPICGRAFTQKGNLLRHIKL [46F_47S_49P_50I_52G_53R_54A_55F_67L_, Q9UKT9]" qualitative_label=No
sequence_chain="LFCEICGFMCTQKGNLLRHIKL [46L_47F_49E_50I_52G_53F_54M_55C_67L_, Q9UKT9]" qualitative_label=Yes
sequence_chain="FGCNQCGHIFTQKGNLLRHIKL [46F_47G_49N_50Q_52G_53H_54I_55F_67L_, Q9UKT9]" qualitative_label=No
sequence_chain="FLCPQCGAPFTQKGNLLRHIKL [46F_47L_49P_50Q_52G_53A_54P_55F_67L_, Q9UKT9]" qualitative_label=No
sequence_chain="FMCPVCGARFTQKGNLLRHIKL [46F_47M_49P_50V_52G_53A_54R_55F_67L_, Q9UKT9]" qualitative_label=No

Next up:
Answer whether log2 fold change of degron read counts of FVCEVCGAWFTQKGNLLRHIKL [46F_47V_49E_50V_52G_53A_54W_55F_67L_, Q9UKT9] is greater than or equal to 1.
No
